- system tested: muscle-type nicotinic acetylcholine receptor (α1, β1, δ and ε-subunits) (Homo sapiens, UniProt P02708+Q04844+Q07001)
- Construct: expressed in transfected cells; host or cells: Xenopus laevis oocytes (nuclear injection of plasmids, CMV promoter)
- Sequence (P02708 21-457): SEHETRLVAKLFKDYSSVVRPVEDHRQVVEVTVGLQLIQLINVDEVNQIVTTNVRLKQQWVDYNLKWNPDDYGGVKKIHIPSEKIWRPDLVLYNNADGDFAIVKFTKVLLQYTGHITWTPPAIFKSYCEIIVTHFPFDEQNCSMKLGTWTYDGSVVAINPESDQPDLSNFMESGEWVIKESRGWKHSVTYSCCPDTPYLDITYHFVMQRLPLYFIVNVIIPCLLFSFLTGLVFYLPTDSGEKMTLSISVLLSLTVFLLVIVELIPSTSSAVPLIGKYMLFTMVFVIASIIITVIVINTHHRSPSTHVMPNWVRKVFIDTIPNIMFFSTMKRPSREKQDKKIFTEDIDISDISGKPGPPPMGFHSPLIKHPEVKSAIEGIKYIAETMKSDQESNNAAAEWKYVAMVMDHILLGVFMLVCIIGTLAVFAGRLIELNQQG
- Sequence (Q04844 21-493): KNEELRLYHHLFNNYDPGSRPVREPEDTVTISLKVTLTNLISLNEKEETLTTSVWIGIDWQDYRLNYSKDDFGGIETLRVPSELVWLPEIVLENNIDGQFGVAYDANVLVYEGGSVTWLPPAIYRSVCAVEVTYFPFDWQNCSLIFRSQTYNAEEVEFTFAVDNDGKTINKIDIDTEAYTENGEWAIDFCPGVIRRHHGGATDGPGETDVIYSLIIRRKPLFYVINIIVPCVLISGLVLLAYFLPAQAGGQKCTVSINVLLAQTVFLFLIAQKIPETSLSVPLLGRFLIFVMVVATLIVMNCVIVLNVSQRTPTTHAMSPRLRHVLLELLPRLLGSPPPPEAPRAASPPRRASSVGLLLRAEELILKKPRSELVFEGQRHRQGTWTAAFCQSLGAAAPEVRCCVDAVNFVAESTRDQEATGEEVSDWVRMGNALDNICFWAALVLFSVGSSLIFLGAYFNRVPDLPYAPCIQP
- Sequence (P11230 24-501, further chain): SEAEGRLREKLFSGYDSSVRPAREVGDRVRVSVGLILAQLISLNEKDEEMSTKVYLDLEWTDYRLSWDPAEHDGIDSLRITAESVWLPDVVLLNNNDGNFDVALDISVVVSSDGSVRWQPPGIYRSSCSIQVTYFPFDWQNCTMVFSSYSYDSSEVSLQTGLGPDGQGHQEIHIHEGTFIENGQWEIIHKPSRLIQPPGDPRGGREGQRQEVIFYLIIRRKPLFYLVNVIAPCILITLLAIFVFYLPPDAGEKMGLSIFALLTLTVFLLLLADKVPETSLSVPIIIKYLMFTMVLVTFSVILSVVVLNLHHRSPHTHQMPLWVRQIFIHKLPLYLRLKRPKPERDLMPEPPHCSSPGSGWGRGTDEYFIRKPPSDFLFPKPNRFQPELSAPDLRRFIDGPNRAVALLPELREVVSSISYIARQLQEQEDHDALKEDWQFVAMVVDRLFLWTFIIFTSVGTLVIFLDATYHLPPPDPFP
- Sequence (Q07001 22-517): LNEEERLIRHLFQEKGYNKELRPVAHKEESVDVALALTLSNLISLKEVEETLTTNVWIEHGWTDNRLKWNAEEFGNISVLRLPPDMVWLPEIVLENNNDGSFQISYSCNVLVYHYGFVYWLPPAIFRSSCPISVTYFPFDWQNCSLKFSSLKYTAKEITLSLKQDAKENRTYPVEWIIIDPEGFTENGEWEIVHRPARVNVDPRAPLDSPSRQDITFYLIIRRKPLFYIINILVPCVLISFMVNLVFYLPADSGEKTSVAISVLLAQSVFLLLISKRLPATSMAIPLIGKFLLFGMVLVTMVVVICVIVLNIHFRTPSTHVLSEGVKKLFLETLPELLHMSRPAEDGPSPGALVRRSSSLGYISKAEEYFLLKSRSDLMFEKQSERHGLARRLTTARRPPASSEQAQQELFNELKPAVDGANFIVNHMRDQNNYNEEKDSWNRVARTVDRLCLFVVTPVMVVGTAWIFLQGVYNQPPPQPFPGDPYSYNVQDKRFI
- method summary: Inhibition of acetylcholine-induced current through muscle-type nAChR expressed in Xenopus laevis oocytes (two-electrode voltage clamp)
- Type: cell-based
measured property: pIC50
Lab note — pIC50 values are minus log10 of concentrations in M.

Request: Which value of pIC50 has been reported for H-WYPKP-NH2 [SEQ ID NO: 42, H-Trp-Tyr-Pro-Lys-Pro-NH2] in the records?
Response: 4.64
